Experiment: qHTS assay for small molecule activators of the p53 signaling pathway (AID 651743); note: % of control where 0% means no effect
Experimental Parameters: HCT-116 p53RE-bla, beta-lactamase FRET ratio, 16 h; active compounds read high
Results filed as inconclusive are left out.
Experimental Readout: activation (%)
Answers are plain numbers, in %.

The examples below pair each entry with its known result.
# Compound, Experimental Readout, Measured Result
records = [
    ("CCCCCCCCCCCO", "activation", 1.01),
    ("COCCOCCOCCOC", "activation", 0.451),
    ("Cc1ccc(S(=O)(=O)N=C=O)cc1", "activation", -3.48),
    ("CCCCCCCCCCCCCCCC", "activation", -5.95),
    ("CC(C)(C)C(O)/C(=C\\c1ccc(Cl)cc1)n1cncn1 (stereo not drawn)", "activation", -2.96),
]

Would you be so kind as to report activation for each listed record?
1. NCCCCCCCCCCC(=O)O
2. C/C(=C\C(C)CC(C)CC(C)C)C1CC(=O)OC1=O (stereo not drawn)
3. CCCCCCCCCCCCCCCCN(C)C

Result:
1. 0.322
2. -3.07
3. -1.17

---

Hi there, I'd appreciate the recorded Potency for every entry that follows.
Target: Flap endonuclease 1 (Homo sapiens)
Experiment: qHTS Assay for the Inhibitors of FEN1: Confirmatory Assay for Cherry-picked Compounds (AID 720498); note: potency is the fitted concentration of half-maximal effect; nearly all actives have a fitted effect of over 60% in size
Experimental Parameters: FEN1 flap cleavage, TAMRA/BHQ2 fluorogenic DNA substrate
Some of the results follow. Inconclusive results are not listed. Active and inactive are the calls of the source. Calls follow the shape of the dose curve; as a rule, active = well fitted inhibition curve with a large enough effect; inconclusive = small, poorly fitted or top-dose-only effect; inactive = flat fitted curve, though single readings scatter.

These recorded examples may help you get a feel for the data.
# Compound, Potency
records = [
    ("CCN1CCN(CCCNC(=O)c2ccc3c(c2)sc2nc(-c4ccc(OC)cc4)cn23)CC1", "33.8 µM (active)"),
    ("CN(C)CCNC(=O)c1ccc(Cl)c2cc3ccccc3nc12", "13.5 µM (active)"),
]

Give Potency for each listed item.
1. CC(=O)OC1CCC2(C)C(=CCC3C4CC(=O)N(O)C(=O)C4(C)CCC32)C1 (configuration not stated)
2. Cc1ccc(C(=O)O)cc1-c1ccc(/C=C2\SC(=O)N(CC(=O)Nc3ccc4c(c3)OCO4)C2=O)o1
3. c1ccc2cc3c(NCCN4CCOCC4)ccnc3cc2c1
4. COc1ccc(Cc2nnc(NC(=O)Cc3cccs3)s2)cc1
5. O=C(CSc1nc2ccccc2c(=O)[nH]1)Nc1nc(-c2ccc(Br)cc2)cs1
6. O=C(O)C(c1ccccc1)N1C(=O)/C(=C\c2ccc(-c3cccc(Cl)c3)o2)SC1=S (configuration not stated)
7. COc1nc(N=C(N)N)nc2c(C)cccc12

Result:
1. 23.9 µM (active)
2. 19 µM (active)
3. 37.9 µM (active)
4. 84.9 µM (active)
5. 60.1 µM (active)
6. 75.7 µM (active)
7. 33.8 µM (active)

Give Potency for each of the items listed below.
1. CC(=O)Nc1ccc(Nc2c3ccccc3nc3ccccc23)cc1
2. CCN1CCN(CCNC(=O)c2ccc3c(c2)NC(=O)/C(=C\c2ccc(OC)c(OC)c2)S3)CC1
3. CN1CCN(CCCNC(=O)c2ccc(/C=C3\Oc4ccccc4N(Cc4ccc(Cl)cc4)C3=O)cc2)CC1

Result:
1: 30.1 µM (active); 2: 33.8 µM (active); 3: 23.9 µM (active)

---

Target: Cytochrome P450 3A4 (Homo sapiens) (UniProt P08684)
Sequence (P08684 whole entry, looked up): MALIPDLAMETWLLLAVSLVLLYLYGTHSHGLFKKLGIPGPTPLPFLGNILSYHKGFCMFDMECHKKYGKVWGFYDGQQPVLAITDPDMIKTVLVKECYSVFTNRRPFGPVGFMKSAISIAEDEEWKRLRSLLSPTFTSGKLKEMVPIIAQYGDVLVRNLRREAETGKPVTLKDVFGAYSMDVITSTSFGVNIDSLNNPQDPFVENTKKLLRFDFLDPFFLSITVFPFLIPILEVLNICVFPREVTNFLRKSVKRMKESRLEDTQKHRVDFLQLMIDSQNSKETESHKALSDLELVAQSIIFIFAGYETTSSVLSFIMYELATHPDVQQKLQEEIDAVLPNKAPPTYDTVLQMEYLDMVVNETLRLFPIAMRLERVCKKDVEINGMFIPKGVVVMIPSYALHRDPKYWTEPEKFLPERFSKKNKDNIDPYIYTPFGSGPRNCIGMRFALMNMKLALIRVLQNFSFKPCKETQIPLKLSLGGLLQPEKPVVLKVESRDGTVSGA
Experiment: qHTS Assay for Inhibitors and Substrates of Cytochrome P450 3A4 (AID 884); note: nearly all actives have a fitted effect of over 50% in size
Experimental Parameters: recombinant CYP3A4, Luciferin-PPXE luminescence; series mostly up to 57.1 µM
Inconclusive results are not listed. The source made the active and inactive calls. Calls follow the shape of the dose curve; as a rule, active = well fitted inhibition curve with a large enough effect; inconclusive = small, poorly fitted or top-dose-only effect; inactive = no such curve, though single readings can be large or run the other way.
// one of active, inactive, no free text

# Compound, Label Class
rows = [
    ("CCCCOC(OCCCC)[C@H](O)CSc1ccc2ccccc2c1", "active"),
    ("COc1cc(OC)c2c(c1)OC(c1ccccc1)CC2=O (stereo not given)", "active"),
    ("c1ccc(-c2ccc(CN3C[C@@H]4C(c5ccccc5)C5(c6ccccc6)CC4(C5)[C@H]3c3ccccc3)cc2)cc1 (stereo not given in full)", "inactive"),
    ("C[C@@H]1C=C[C@](Cc2ccccc2)(C(=O)O)N1C(=O)c1ccccc1", "inactive"),
]

Next up:
Ask: # lookup: test call for C[C@]12CCC(=O)C=C1CCC1C2C(O)C[C@]2(C)C1CC[C@]2(O)C(=O)COC(=O)CCC(=O)O (stereo not given in full)
Result: inactive

---

Target: Glucocorticoid receptor (Homo sapiens) (UniProt P04150)
Sequence (P04150 whole entry, looked up): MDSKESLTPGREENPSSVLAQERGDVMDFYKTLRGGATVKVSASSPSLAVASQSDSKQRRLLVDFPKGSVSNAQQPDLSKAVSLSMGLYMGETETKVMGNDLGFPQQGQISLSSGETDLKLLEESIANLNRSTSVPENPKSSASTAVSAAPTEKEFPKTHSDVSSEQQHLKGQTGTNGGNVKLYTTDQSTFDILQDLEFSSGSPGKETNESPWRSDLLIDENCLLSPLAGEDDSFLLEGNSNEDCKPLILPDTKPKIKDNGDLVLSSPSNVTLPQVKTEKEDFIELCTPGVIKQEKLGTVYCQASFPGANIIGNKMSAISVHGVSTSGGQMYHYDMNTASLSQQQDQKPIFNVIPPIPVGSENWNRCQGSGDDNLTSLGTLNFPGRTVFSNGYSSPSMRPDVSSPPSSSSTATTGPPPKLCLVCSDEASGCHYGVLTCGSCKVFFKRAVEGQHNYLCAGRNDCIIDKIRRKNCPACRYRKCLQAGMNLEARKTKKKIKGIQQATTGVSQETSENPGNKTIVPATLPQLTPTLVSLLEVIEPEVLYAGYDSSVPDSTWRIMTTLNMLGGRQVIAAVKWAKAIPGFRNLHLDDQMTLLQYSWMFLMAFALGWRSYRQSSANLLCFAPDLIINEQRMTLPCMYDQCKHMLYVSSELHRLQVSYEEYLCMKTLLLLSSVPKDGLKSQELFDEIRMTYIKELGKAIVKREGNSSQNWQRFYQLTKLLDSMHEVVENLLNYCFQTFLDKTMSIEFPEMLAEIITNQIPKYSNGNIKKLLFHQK
Experiment: qHTS assay for small molecule antagonists of glucocorticoid receptor signaling (AID 588533);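 note: cells stimulated with 2 nM dexamethasone as agonist; % is set by controls: 0 for no effect and ±100 for the full control effect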
Experimental Parameters: HeLa MMTV-bla, GRE beta-lactamase ratio, antagonist mode, 18 h; series mostly up to 76.8 µM
Records with an inconclusive call do not appear. Activity calls are given as the source filed them. The call rests on the fitted dose curve; in most records, active means well fitted inhibition curve with a large enough effect in the signal ratio, with a control signal flat (not every such curve was filed as active); inconclusive means small, poorly fitted or top-dose-only effect, or effect the other way, or a change in a side signal; inactive means flat fitted curve, though single readings scatter; the % refers to the signal ratio.
Experimental Readout: outcome

Observe how each entry below is paired with its result.
# Molecule, Measured Result
records = [
    ("S=C([S-])NCCNC(=S)[S-].[Mn+2]", "inactive"),
    ("c1cc(-c2ccncc2)ccn1", "inactive"),
    ("COC(=O)c1c(Cl)nn(C)c1S(=O)(=O)NC(=O)Nc1nc(OC)cc(OC)n1", "inactive"),
    ("CCCCCCC(C)(C)S", "inactive"),
]

For each listed entry, give its outcome.
1. CN(C)c1nc(=O)n(C2CCC(O)CC2)c(=O)n1C (configuration not stated)
2. CC(C)CC(C)(O)C#CC(C)(O)CC(C)C (configuration not stated)
3. CCCCCCc1ccc(N)cc1
4. C=CC(=O)OCC(C)OCC(C)OCC(C)OC(=O)C=C (configuration not stated)
5. CCCCCCCCCCCCCCCCCCN
6. CC(C)(C)c1ccc(C(=O)O)cc1

Result:
1. inactive
2. inactive
3. inactive
4. inactive
5. inactive
6. inactive

Report outcome for each item below.
1. CO[Si](CCCOCC1CO1)(OC)OC (configuration not stated)
2. CC(=O)OC1CCC(C(C)(C)C)CC1 (configuration not stated)
3. CC1(C)CC(N)CC(C)(CN)C1 (configuration not stated)

Result:
1: inactive; 2: inactive; 3: inactive

Each of the following entries comes with a recorded value; kindly state outcome for each.
1. O=C(c1ccccc1)c1ccc(O)c(O)c1O
2. CC1(C)[C@@H]([C@@H](Br)C(Br)(Br)Br)[C@H]1C(=O)O[C@H](C#N)c1cccc(Oc2ccccc2)c1
3. CC(COCC(C)OC(=O)c1ccccc1)OC(=O)c1ccccc1 (configuration not stated)
4. CC(C)(C)c1n[nH]c(=O)n(N)c1=O

Result:
1. inactive
2. inactive
3. inactive
4. inactive

---

Target: Cytochrome P450 2C19 (Homo sapiens) (UniProt P33261)
Sequence (P33261 whole entry, looked up): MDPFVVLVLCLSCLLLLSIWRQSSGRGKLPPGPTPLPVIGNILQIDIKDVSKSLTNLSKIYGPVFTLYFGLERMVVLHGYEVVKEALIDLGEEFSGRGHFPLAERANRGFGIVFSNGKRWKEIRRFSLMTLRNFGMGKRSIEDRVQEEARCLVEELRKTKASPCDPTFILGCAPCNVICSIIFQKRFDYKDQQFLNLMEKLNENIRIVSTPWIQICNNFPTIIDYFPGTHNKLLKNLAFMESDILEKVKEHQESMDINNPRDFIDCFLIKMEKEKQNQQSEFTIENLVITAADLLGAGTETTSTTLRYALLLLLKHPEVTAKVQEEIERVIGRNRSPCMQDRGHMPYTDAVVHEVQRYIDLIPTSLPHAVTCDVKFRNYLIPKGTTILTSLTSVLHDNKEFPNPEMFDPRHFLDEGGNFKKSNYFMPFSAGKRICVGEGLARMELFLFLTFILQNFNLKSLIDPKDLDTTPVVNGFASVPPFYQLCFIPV
Experiment: qHTS Assay for Inhibitors and Substrates of Cytochrome P450 2C19 (AID 899); note: nearly all actives have a fitted effect of over 60% in size
Experimental Parameters: recombinant CYP2C19, luciferin-H EGE luminescence; series mostly up to 11.4 µM
Description: NIH Molecular Libraries Screening Centers Network [MLSCN] NIH Chemical Genomics Center [NCGC] The P450 gene superfamily is involved in the metabolism and clearance of xenobiotics. […] The luciferin is then measured by luminescence after the addition of a luciferase detection reagent. […] Inhibitors and some substrates limit the production of luciferin, and decrease measured luminescence. […]
Records with an inconclusive call do not appear. Active and inactive are the calls of the source. Calls come from the whole dose curve; as a rule, active = well fitted inhibition curve with a large enough effect; inconclusive = small, poorly fitted or top-dose-only effect; inactive = no such curve, though single readings can be large or run the other way.
Output constraint: value belongs to active, inactive

# Molecule, Label Class
rows = [
    ("COc1ccc(O[C@H]2C=C[C@@H](c3ccccc3)O[C@H]2COC(=O)CC/C(C)=N\\OC[C@@H](O)[C@H]2O[C@H]3OC(C)(C)O[C@H]3[C@@H]2O)cc1", "active"),
]

Ask: Called result for COc1cccc(C2C(C)CCC3C(=O)N(C)C(C(C)C)C(=O)N32)c1 (centres undefined)
Result: inactive

Ask: Recorded call for O=C(/C=N/O)NCCCCNC(=O)/C=N/O ?
Result: inactive

Ask: Call for entry CCN1C(C)=C(C(=O)OC)C(c2ccccc2)N2C(=O)[C@@]3(C(=O)OC)O[C@@]12C1C(=O)CCCC13 (some centres undefined) :
Result: inactive

Ask: Recorded test call requested for COC(=O)NC(CC(C)=O)c1cccc(C)c1 (centres undefined)
Result: inactive

Ask: Answer briefly: the call reported for C=CCOCC1CN2C(CCC(C)C2c2ccc(Br)cc2)C(=O)O1 (centres undefined) in this assay.
Result: inactive

Ask: # outcome recorded in this test, key = C[C@@H](c1ccccc1)N1C(=O)[C@H]2[C@@H]3[C@H](O)C=CC(=O)[C@H]3CC[C@H]2C1=O
Result: inactive

Ask: Answer briefly: the call reported for COC(=O)NC(c1ccccc1)[C@]1(C(C)=O)CCCC1=O (some centres undefined) in this assay.
Result: inactive

Ask: Could you kindly confirm the outcome this assay logged for CO[C@@H]1COC(=O)[C@H]2CCCN2C(=O)[C@@H](C)COC(=O)CCC[C@H]1C ?
Result: inactive

Ask: Entry COC(=O)NC(/C=C/c1ccco1)[C@@]1(C(=O)OC)CCCC1=O (some centres undefined) : call = ?
Result: inactive

Ask: Entry COC(=O)[C@@H]1CC[C@H](C)[C@@H](c2ccc(C)cc2)N1C(=O)c1ccc(/C=N\OC[C@@H]2O[C@H](c3ccccc3)C=C[C@@H]2Oc2ccc(OC)cc2)cc1 : call = ?
Result: active

Ask: Would you mind telling me which call this test gave CCOC(=O)OCC1OC(C#Cc2ccc(C)cc2C)C=CC1OC(=O)OCC (centres undefined) ?
Result: inactive

Ask: Which result was noted for this molecule in the test: CCCCC#CC1C=CC(Oc2ccc(C(=O)OC)cc2)C(COC(=O)OCC)O1 (centres undefined)
Result: inactive
